From: patent US11987568B2

# tgt: full length human WEE1 kinase (Homo sapiens, UniProt P30291)
# Sequence (P30291 whole entry): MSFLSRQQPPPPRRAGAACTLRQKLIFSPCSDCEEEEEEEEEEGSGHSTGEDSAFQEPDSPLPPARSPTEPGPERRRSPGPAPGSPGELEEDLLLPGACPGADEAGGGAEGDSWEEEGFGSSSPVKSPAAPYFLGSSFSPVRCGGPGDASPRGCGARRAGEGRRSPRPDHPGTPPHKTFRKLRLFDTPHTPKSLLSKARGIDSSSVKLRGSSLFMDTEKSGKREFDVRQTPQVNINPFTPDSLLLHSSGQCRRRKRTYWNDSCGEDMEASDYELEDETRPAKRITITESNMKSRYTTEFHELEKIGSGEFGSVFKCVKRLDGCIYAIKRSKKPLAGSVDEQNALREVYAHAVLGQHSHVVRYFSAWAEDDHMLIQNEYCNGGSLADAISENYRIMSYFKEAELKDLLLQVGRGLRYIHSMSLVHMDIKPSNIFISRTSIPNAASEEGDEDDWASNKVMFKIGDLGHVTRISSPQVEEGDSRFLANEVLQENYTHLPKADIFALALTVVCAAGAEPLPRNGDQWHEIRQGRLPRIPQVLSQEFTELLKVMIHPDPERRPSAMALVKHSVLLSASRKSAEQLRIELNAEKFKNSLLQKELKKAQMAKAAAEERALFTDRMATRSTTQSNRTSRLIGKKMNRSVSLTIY
# assay-remarks: ELISA based assay: WEE1 phosphorylation of biotinylated H2B peptide spanning Tyr37
# Assay type: biochemical
# Parameters: A full length human WEE1 kinase that was enzymatically active was purified from insect cell
# assay-context: Table 1; several values in a cell are repeat determinations
measured-quantity: ELISA Inhibition (%)
API: value field is a number in %; no unit string.

Reference set (3 entries):
CC(C)(C)OC(=O)NCc1ccc(NC(=O)C2CCC(C(=O)Nc3ccc(CNC(=O)OC(C)(C)C)cc3)CC2)cc1 (centres unmarked) [SG5-140-12] : 4
Nc1ccc(NC(=O)c2ccc(C(=O)Nc3ccc(N)c(F)c3)cc2)cc1F [SG5-137-1] : −24
CC(C)(C)OC(=O)Nc1ccc(NC(=O)c2ccc(C(=O)Nc3ccc(NC(=O)OC(C)(C)C)cc3)nc2)cc1 [SG5-119] : −17

The molecule CC(C)(C)OC(=O)NCc1ccc(NC(=O)c2ccc(C(=O)Nc3ccc(CNC(=O)OC(C)(C)C)cc3)nc2)cc1 [SG5-140-11] , tested on full length human WEE1 kinase (Homo sapiens, UniProt P30291), showed ELISA Inhibition (%) of −6

Cl.Nc1ccc(NC(=O)c2ccc(C(=O)Nc3ccc(N)c(Cl)c3)o2)cc1Cl [SG5-147-6] tested on full length human WEE1 kinase (Homo sapiens, UniProt P30291) gave ELISA Inhibition (%): 13
